measured target: hemagglutinin (HA) of influenza A/Japan/305/57 (H2N2) on whole virions (Influenza A virus A/Japan/305/1957(H2N2), UniProt P03451 16-562)
experiment notes: ELISA; BCC supernatant on coated inactivated whole virions
// reported ELISA virus binding (OD450) for each item listed
Return type: number; implicit unit OD450.

// worked examples, ELISA virus binding (OD450) included
binder	meas value
TCN-528 (5087_P17) (antibody, V domains shown) VH: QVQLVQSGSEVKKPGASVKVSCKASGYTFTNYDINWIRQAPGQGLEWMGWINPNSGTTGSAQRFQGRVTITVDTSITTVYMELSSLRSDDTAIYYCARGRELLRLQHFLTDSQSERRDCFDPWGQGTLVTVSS VL: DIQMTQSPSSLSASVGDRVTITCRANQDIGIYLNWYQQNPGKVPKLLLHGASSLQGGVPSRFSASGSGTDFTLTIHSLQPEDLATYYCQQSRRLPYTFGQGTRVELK	2.82
TCN-536 (5095_N01) (antibody, V domains shown) VH: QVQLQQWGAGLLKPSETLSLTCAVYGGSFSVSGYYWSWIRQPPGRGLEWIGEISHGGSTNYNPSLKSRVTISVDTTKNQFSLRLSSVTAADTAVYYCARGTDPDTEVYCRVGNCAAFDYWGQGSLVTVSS VL: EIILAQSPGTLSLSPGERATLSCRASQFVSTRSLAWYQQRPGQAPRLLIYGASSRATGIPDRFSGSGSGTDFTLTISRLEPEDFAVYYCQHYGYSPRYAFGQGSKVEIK	0.08

Now let's try a different one.
// ELISA virus binding (OD450) value for TCN-533 (5256_A17a) (antibody, V domains shown) VH: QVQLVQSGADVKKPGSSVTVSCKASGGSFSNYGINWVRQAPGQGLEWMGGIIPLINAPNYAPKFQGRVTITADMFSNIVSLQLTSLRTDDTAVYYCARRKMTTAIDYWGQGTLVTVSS VL: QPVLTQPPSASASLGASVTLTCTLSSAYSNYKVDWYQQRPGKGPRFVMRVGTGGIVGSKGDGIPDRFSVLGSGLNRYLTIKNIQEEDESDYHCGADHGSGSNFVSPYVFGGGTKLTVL : 1.1
